The reported numbers originate from ChEMBL document CHEMBL1649063.

molecular target: Glucocorticoid receptor (Homo sapiens, UniProt P04150); experiment: Modulation of glucocorticoid receptor in human SKGT4 cells assessed as receptor translocation from cytoplasm to nucleus after 4 hrs by Hoechst staining relative to Dexamethasone
Sequence (P04150 whole entry): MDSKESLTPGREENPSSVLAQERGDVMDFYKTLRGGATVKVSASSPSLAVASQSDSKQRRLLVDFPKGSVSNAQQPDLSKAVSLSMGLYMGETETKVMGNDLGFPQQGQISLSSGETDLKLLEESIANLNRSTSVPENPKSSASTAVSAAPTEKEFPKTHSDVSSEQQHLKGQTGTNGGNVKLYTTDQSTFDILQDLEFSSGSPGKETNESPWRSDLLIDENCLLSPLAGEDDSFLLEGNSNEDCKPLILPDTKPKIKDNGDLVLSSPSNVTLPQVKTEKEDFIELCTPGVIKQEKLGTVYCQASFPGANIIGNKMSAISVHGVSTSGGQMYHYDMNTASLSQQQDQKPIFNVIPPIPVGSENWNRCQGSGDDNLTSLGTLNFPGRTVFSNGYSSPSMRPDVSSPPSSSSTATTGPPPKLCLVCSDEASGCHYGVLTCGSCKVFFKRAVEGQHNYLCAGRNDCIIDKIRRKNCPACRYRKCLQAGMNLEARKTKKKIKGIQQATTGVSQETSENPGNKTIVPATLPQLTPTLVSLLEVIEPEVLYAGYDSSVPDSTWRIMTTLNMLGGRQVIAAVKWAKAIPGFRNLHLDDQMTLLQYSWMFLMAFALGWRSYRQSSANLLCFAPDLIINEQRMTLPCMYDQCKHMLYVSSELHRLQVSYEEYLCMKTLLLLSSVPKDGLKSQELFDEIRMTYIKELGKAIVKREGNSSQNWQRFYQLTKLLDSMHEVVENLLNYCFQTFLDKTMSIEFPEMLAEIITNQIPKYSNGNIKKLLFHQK
Reported log10 EC50 values for a set of compounds
The base-10 logarithm of EC50, taken with EC50 in µM, is what appears here.

Compound	Meas Value
C[C@H](CCC#N)[C@H]1CC[C@H]2[C@@H]3[C@@H](O)C[C@@H]4C[C@H](O)CC[C@]4(C)[C@H]3CC[C@]12C	2.00
C[C@H](CCC(=O)N1CCN(Cc2ccccc2)CC1)[C@H]1CC[C@H]2[C@@H]3[C@@H](O)C[C@@H]4C[C@H](O)CC[C@]4(C)[C@H]3CC[C@]12C	0.75

### Prompt Quickly give me recorded log10 EC50 for C[C@H](C(=O)O)[C@H]1CC[C@H]2[C@@H]3[C@@H](O)C[C@@H]4C[C@H](O)CC[C@]4(C)[C@H]3CC[C@]12C
### Response 2.00

### Prompt Quickly give me recorded log10 EC50 for C[C@H](CCC(=O)N1CCOCC1)[C@H]1CC[C@H]2[C@@H]3[C@@H](O)C[C@@H]4C[C@H](O)CC[C@]4(C)[C@H]3CC[C@]12C
### Response 1.40

### Prompt Quickly give me recorded log10 EC50 for C[C@H](CCC(=O)NCc1ccccc1)[C@H]1CC[C@H]2[C@@H]3[C@@H](O)C[C@@H]4C[C@H](O)CC[C@]4(C)[C@H]3CC[C@]12C
### Response 2.04

### Prompt Quickly give me recorded log10 EC50 for C[C@H](CCC(=O)N1CCNCC1)[C@H]1CC[C@H]2[C@@H]3[C@@H](O)C[C@@H]4C[C@H](O)CC[C@]4(C)[C@H]3CC[C@]12C
### Response 1.71

### Prompt Quickly give me recorded log10 EC50 for C[C@H](CC(=O)O)[C@H]1CC[C@H]2[C@@H]3[C@@H](O)C[C@@H]4C[C@H](O)CC[C@]4(C)[C@H]3CC[C@]12C
### Response 2.02

### Prompt Quickly give me recorded log10 EC50 for C[C@H](C#N)[C@H]1CC[C@H]2[C@@H]3[C@@H](O)C[C@@H]4C[C@H](O)CC[C@]4(C)[C@H]3CC[C@]12C
### Response 2.11

### Prompt Quickly give me recorded log10 EC50 for C[C@H](CCC(=O)NCCc1ccccc1)[C@H]1CC[C@H]2[C@@H]3[C@@H](O)C[C@@H]4C[C@H](O)CC[C@]4(C)[C@H]3CC[C@]12C
### Response 2.04

### Prompt Quickly give me recorded log10 EC50 for CC(NC(=O)CC[C@@H](C)[C@H]1CC[C@H]2[C@@H]3[C@@H](O)C[C@@H]4C[C@H](O)CC[C@]4(C)[C@H]3CC[C@]12C)c1ccccc1 (stereo partly specified)
### Response 2.09

### Prompt Quickly give me recorded log10 EC50 for C[C@H](CCC(=O)NC1CC1)[C@H]1CC[C@H]2[C@@H]3[C@@H](O)C[C@@H]4C[C@H](O)CC[C@]4(C)[C@H]3CC[C@]12C
### Response 0.86
